Tested on: Giardia intestinalis trophozoites
Assay info: Drug susceptibility of Giardia trophozoites, ATP level by luminescence (BacTiter-Glo), 48 h incubation, anaerobic or microaerobic
Type: cell-based, Giardia intestinalis strain WB clone C6
Conditions used: Giardia duodenalis, 48 h, microaerobic conditions (~5% O2, Anaerocult C), 48 h, 37 °C, ATP level; read-out: Giardia (microaerobiosis) IC50
pIC50: −log10 of the molar value.
Result type: pIC50

> print(dat)
                                 smiles.text                     assayed.target  result.type  result
 1  COc1cccc(C(=O)/C=C/c2cc3ccccc3n(Cc3cn(-c4ccccc4)nn3)c2=O)c1  Giardia intestinalis trophozoites        pIC50    5.80
 2  O=C(/C=C/c1cc2ccccc2n(Cc2cn(-c3ccc(Cl)cc3)nn2)c1=O)c1cccc(F)c1  Giardia intestinalis trophozoites        pIC50    6.05
 3  COc1ccccc1C(=O)/C=C/c1cc2ccccc2n(Cc2cn(-c3ccc(F)cc3)nn2)c1=O  Giardia intestinalis trophozoites        pIC50    6.52
 4  O=C(/C=C/c1cc2ccccc2n(Cc2cn(-c3ccc(Cl)cc3)nn2)c1=O)c1ccccc1F  Giardia intestinalis trophozoites        pIC50    6.05
 5  COc1ccc(-n2cc(Cn3c(=O)c(/C=C/C(=O)c4ccc(C)cc4)cc4ccccc43)nn2)cc1  Giardia intestinalis trophozoites        pIC50    5.82
 6  COc1ccc(-n2cc(Cn3c(=O)c(/C=C/C(=O)c4ccccc4OC)cc4ccccc43)nn2)cc1  Giardia intestinalis trophozoites        pIC50    6.40
 7  COc1cccc(C(=O)/C=C/c2cc3ccccc3n(Cc3cn(-c4ccc(C)cc4)nn3)c2=O)c1  Giardia intestinalis trophozoites        pIC50    5.89
 8  O=C(/C=C/c1cc2ccccc2n(Cc2cn(-c3ccccc3)nn2)c1=O)c1ccc(Cl)cc1  Giardia intestinalis trophozoites        pIC50    6.15
 9  Cc1ccc(C(=O)/C=C/c2cc3ccccc3n(Cc3cn(-c4ccc(Cl)cc4)nn3)c2=O)cc1  Giardia intestinalis trophozoites        pIC50    5.96
10  COc1cccc(C(=O)/C=C/c2cc3ccccc3n(Cc3cn(-c4ccc(F)cc4)nn3)c2=O)c1  Giardia intestinalis trophozoites        pIC50    5.80
11  COc1ccccc1C(=O)/C=C/c1cc2ccccc2n(Cc2cn(-c3ccc(Cl)cc3)nn2)c1=O  Giardia intestinalis trophozoites        pIC50    6.22
12  COc1ccc(C(=O)/C=C/c2cc3ccccc3n(Cc3cn(-c4ccc(OC)cc4)nn3)c2=O)cc1  Giardia intestinalis trophozoites        pIC50    5.70
13  Cc1ccc(-n2cc(Cn3c(=O)c(/C=C/C(=O)c4ccccc4F)cc4ccccc43)nn2)cc1  Giardia intestinalis trophozoites        pIC50    6.22
14  O=C(/C=C/c1cc2ccccc2n(Cc2cn(-c3ccccc3)nn2)c1=O)c1cccc(F)c1  Giardia intestinalis trophozoites        pIC50    6.15
15  Cc1ccc(C(=O)/C=C/c2cc3ccccc3n(Cc3cn(-c4ccccc4)nn3)c2=O)cc1  Giardia intestinalis trophozoites        pIC50    6.30
16  COc1ccc(-n2cc(Cn3c(=O)c(/C=C/C(=O)c4ccc(Cl)cc4)cc4ccccc43)nn2)cc1  Giardia intestinalis trophozoites        pIC50    5.59
17  Cc1ccc(-n2cc(Cn3c(=O)c(/C=C/C(=O)c4ccc(F)cc4)cc4ccccc43)nn2)cc1  Giardia intestinalis trophozoites        pIC50    5.92
18  Cc1ccc(-n2cc(Cn3c(=O)c(/C=C/C(=O)c4ccc(Cl)cc4)cc4ccccc43)nn2)cc1  Giardia intestinalis trophozoites        pIC50    6.10
19  O=C(/C=C/c1cc2ccccc2n(Cc2cn(-c3ccc(Cl)cc3)nn2)c1=O)c1ccc(Cl)cc1  Giardia intestinalis trophozoites        pIC50    5.96
20  COc1ccc(C(=O)/C=C/c2cc3ccccc3n(Cc3cn(-c4ccc(C)cc4)nn3)c2=O)cc1  Giardia intestinalis trophozoites        pIC50    5.62
